target: full length recombinant Pim-1 protein (Homo sapiens, UniProt P11309); construct: by full length recombinant Pim-1, Pim-2, or Pim-3 protein; hexahistidine tag followed by a thrombin cleavage site (N); made in house; host or cells: Sf9 (baculovirus) or E. coli (pET28); test: Pim-1 enzyme assay (HTRF, phosphorylation of biotinylated-BAD (S112) peptide); type: biochemical; settings: read-out: Pim_1_IC50
Sequence (P11309 whole entry): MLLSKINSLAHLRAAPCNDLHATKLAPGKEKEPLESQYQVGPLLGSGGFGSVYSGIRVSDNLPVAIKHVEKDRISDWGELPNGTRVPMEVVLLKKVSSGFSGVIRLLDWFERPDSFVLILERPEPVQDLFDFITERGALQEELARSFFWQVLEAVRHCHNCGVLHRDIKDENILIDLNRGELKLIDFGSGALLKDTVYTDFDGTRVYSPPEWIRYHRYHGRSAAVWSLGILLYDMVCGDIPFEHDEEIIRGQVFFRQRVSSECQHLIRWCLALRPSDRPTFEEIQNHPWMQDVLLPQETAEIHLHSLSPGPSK
READOUT_TYPE: IC50

INSERT INTO assay_data (compound, target_under_test, meas_value) VALUES
  ('Fc1cccc(F)c1-c1ccc2[nH]nc(-c3cncc(CC4CCCNC4)n3)c2c1 (racemic) [Example 272, ditrifluoroacetate]', 'full length recombinant Pim-1 protein (Homo sapiens, UniProt P11309)', '13 nM'),
  ('Cc1ccc(C(F)(F)F)cc1-c1ccc2[nH]cc(-c3cncc(O[C@@H]4CCCNC4)n3)c2c1', 'full length recombinant Pim-1 protein (Homo sapiens, UniProt P11309)', '159 nM'),
  ('CC(C)Oc1cncc(-c2n[nH]c3ccc(-c4nccc(N5CCOC[C@@H]5C)n4)cc23)n1', 'full length recombinant Pim-1 protein (Homo sapiens, UniProt P11309)', '67 nM'),
  ('COc1cc(-c2c[nH]c3ccc(-c4c(F)cccc4F)cc23)nc(N2CCOCC2)n1', 'full length recombinant Pim-1 protein (Homo sapiens, UniProt P11309)', '> 1000 nM');

###

target: full length recombinant Pim-1 protein (Homo sapiens); construct: by full length recombinant Pim-1, Pim-2, or Pim-3 protein; hexahistidine tag followed by a thrombin cleavage site (N); made in house; host or cells: Sf9 (baculovirus) or E. coli (pET28); assay: Pim-1 enzyme assay (HTRF, phosphorylation of biotinylated-BAD (S112) peptide); type: biochemical; details: read-out: Pim_1_IC50
pIC50: −log10 of the molar value.
The entries below come with measured pIC50 values attached.
READOUT_TYPE: pIC50

INSERT INTO results (compound, meas_value) VALUES
  ('c1cc2cc(-c3ccc4[nH]cc(-c5cncc(O[C@@H]6CCCNC6)n5)c4c3)cnc2[nH]1', 8.10),
  ('COC(=O)c1ccc2[nH]nc(-c3cncc(O[C@@H]4CCCNC4)n3)c2c1', 7.74),
  ('CC(C)C1CCNCC1Oc1cncc(-c2n[nH]c3ccc(-c4c(F)cccc4F)cc23)n1 (single isomer, unassigned) [Example 394]', 7.52),
  ('COc1ccc(-c2ccc3[nH]cc(-c4cncc(O[C@@H]5CCCNC5)n4)c3c2)cc1OC', 7.70),
  ('NS(=O)(=O)c1ccc(-c2ccc3[nH]nc(-c4cncc(O[C@H]5CNCCC56CC6)n4)c3c2)c(F)c1', 8.70),
  ('CCNC(=O)c1ccc(C)c(-c2ccc3[nH]cc(-c4cncc(O[C@@H]5CCCNC5)n4)c3c2)c1', 6.63),
  ('N#Cc1ccncc1-c1ccc2[nH]nc(-c3cncc(O[C@H]4CNCCC45CC5)n3)c2c1', 8.40),
  ('CN(C)C(=O)c1ccc2[nH]nc(-c3ccnc(N4CCC(N)CC4)n3)c2c1', 6.08),
  ('c1cc(OC2CCC2)nc(-c2ccc3[nH]cc(-c4cncc(O[C@@H]5CCCNC5)n4)c3c2)c1', 7.89),
  ('CC(c1ccc2[nH]nc(-c3cncc(O[C@H]4CNCCC45CC5)n3)c2c1)C(F)(F)F (single isomer, unassigned) [Example 260]', 8.05),
  ('c1coc(-c2ccc3[nH]nc(-c4cncc(N[C@@H]5CCCNC5)n4)c3c2)n1', 8.70),
  ('COc1ccc(Cl)cc1-c1ccc2[nH]cc(-c3cncc(O[C@@H]4CCCNC4)n3)c2c1', 7.28),
  ('COC(=O)c1ccc2[nH]cc(-c3ccnc(N[C@@H]4CCCNC4)n3)c2c1', 6.98),
  ('Fc1cccc(F)c1-c1ccc2[nH]nc(-c3cncc(OC4C=CCNC4)n3)c2c1 (single isomer, unassigned) [Example 426]', 6.98),
  ('c1cc2[nH]cc(-c3cncc(O[C@@H]4CCCNC4)n3)c2cc1-c1cnc2c(c1)CCCN2', 8.30);

###

molecular target: full length recombinant Pim-3 protein (Homo sapiens); construct: by full length recombinant Pim-1, Pim-2, or Pim-3 protein; test: Pim-3 enzyme assay (HTRF, phosphorylation of biotinylated-BAD (S112) peptide); conditions: read-out: Pim3 IC50
The entries below come with measured IC50 values attached.
READOUT_TYPE: IC50

INSERT INTO assay_data (entry_smiles, meas_value) VALUES
  ('NC1CCN(c2cncc(-c3c[nH]c4ccc(C(=O)O)cc34)n2)CC1', '122 nM'),
  ('CC(C)(C)C(=O)Nc1cccc(-c2ccc3[nH]nc(-c4cncc(N5CCC(N)CC5)n4)c3c2)n1', '82 nM'),
  ('CC(C)Oc1cncc(-c2ccc3[nH]cc(-c4cccc(OC(C)C)n4)c3c2)n1', '616 nM'),
  ('Fc1cccc(F)c1-c1ccc2[nH]cc(-c3nccc(OC4CCNCC4)n3)c2c1', '61 nM');

###

The entries below come with measured pIC50 values attached.
biological target: full length recombinant Pim-2 protein (Homo sapiens); construct: by full length recombinant Pim-1, Pim-2, or Pim-3 protein; hexahistidine tag followed by a thrombin cleavage site (N); made in house; host or cells: Sf9 (baculovirus) or E. coli (pET28); test: Pim-2 enzyme assay (HTRF, phosphorylation of biotinylated-BAD (S112) peptide); type: biochemical; conditions: enzyme assay, Pim-2; read-out: Pim2_IC50
Sequence (Q9P1W9 whole entry): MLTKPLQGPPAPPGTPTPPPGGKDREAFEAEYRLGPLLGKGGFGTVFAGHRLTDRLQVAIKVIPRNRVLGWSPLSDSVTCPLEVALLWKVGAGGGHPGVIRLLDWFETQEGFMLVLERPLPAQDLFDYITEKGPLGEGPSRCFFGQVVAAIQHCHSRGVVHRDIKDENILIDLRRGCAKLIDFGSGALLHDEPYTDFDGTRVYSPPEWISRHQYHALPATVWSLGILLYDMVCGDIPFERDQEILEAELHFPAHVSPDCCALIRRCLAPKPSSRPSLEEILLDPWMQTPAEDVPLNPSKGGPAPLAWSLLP
pIC50: −log10 of the molar value.
READOUT_TYPE: pIC50

INSERT INTO measurements (compound, meas_value) VALUES
  ('O=c1cc(-c2ccc3[nH]nc(-c4cncc(O[C@@H]5CCCNC5)n4)c3c2)c(Cl)c[nH]1 [Example 128]', 7.23),
  ('Fc1cccc(F)c1-c1ccc2[nH]nc(-c3cncc(O[C@H]4CNC[C@@H](F)C4)n3)c2c1 [Example 196]', 7.72),
  ('NC1CCN(c2cncc(-c3n[nH]c4ccc(-c5cc([N+](=O)[O-])ccc5F)cc34)n2)CC1 [Example 84]', 7.35);

###

target: Pim-1 stably transfected into the U2OS human osteogenic sarcoma line (Homo sapiens, UniProt P11309); construct: expressed in transfected cells; host or cells: U2OS human osteogenic sarcoma line; test: Pim cell assay, phospho-BAD normalized against total BAD, U2OS stably transfected with Pim-1; assay type: cell-based; conditions: U2OS cells stably transfected with Pim-1, phospho-BAD; high dose […]; read-out: Pim1_Cell_IC50
Sequence (P11309 whole entry): as the sequence (P11309 whole entry) above
pIC50: −log10 of the molar value.
READOUT_TYPE: pIC50

INSERT INTO measurements (molecule, reading_qualifier, meas_value) VALUES
  ('NC1CCCN(c2cncc(-c3c[nH]c4ccc(-c5c(F)cccc5F)cc34)n2)C1 (stereo not shown)', '=', 5.93),
  ('NC1CCN(c2cncc(-c3n[nH]c4ccc(-c5ccncc5)cc34)n2)CC1', '=', 6.70),
  ('NC1CCN(c2cncc(-c3n[nH]c4ccc(-c5cccnc5)cc34)n2)CC1', '=', 6.77),
  ('Nc1nccc(N2CCc3ccc(-c4ccc5[nH]nc(-c6cncc(N7CCC(N)CC7)n6)c5c4)cc32)n1', '<', 4.80),
  ('N[C@@H]1CCCN(c2cncc(-c3c[nH]c4ccc(-c5c(F)cccc5F)cc34)n2)C1', '=', 5.52),
  ('CN(C)C(=O)c1ccc(F)c(-c2ccc3[nH]nc(-c4cncc(N5CCC(N)CC5)n4)c3c2)c1', '=', 5.62),
  ('CC(C)Oc1cc(-c2ccc3[nH]nc(-c4cncc(O[C@@H]5CCCNC5)n4)c3c2)ccn1', '=', 6.06),
  ('Fc1ncc(Cl)cc1-c1ccc2[nH]nc(-c3cncc(O[C@@H]4CCCNC4)n3)c2c1', '=', 6.12),
  ('NC1CCN(c2cncc(-c3n[nH]c4ccc(-c5cncnc5)cc34)n2)CC1', '=', 6.24),
  ('CS(=O)(=O)c1cccc(-c2ccc3[nH]nc(-c4cncc(N5CCC(N)CC5)n4)c3c2)c1', '=', 5.56),
  ('NC1CCN(c2cncc(-c3n[nH]c4ccc(-c5cc(C(=O)N6CCCCC6)ccc5F)cc34)n2)CC1', '=', 5.85),
  ('Fc1cccc(F)c1-c1ccc2[nH]nc(-c3cncc(O[C@@H]4CNCC[C@H]4F)n3)c2c1 (single isomer, unassigned)', '=', 6.60),
  ('CCN(CC)C(=O)c1cccc(-c2ccc3[nH]nc(-c4cncc(N5CCC(N)CC5)n4)c3c2)c1F', '=', 5.71),
  ('NC1CCN(c2cncc(-c3n[nH]c4ccc(-c5cc(C(=O)N6CCOCC6)ccc5F)cc34)n2)CC1', '=', 5.55),
  ('COc1cccc(-c2ccc3[nH]nc(-c4cncc(N5CCC(N)CC5)n4)c3c2)n1', '=', 5.77),
  ('Cn1c(=O)cc(-c2ccc3[nH]nc(-c4cncc(N5CCC(N)CC5)n4)c3c2)c2ccccc21', '=', 5.64),
  ('NC1CCN(c2cncc(-c3n[nH]c4ccc(-c5cnc6ccccc6c5)cc34)n2)CC1', '=', 6.54),
  ('NC1CCN(c2nccc(-c3n[nH]c4ccc(-c5c(F)cccc5F)cc34)n2)CC1', '=', 6.25),
  ('Fc1cccnc1-c1ccc2[nH]nc(-c3cncc(O[C@@H]4CCCNC4)n3)c2c1', '=', 6.40),
  ('O=C(NC1CC1)c1cccc(-c2ccc3[nH]nc(-c4cncc(O[C@@H]5CCCNC5)n4)c3c2)c1', '=', 6.61),
  ('NC1CCN(c2cncc(-c3n[nH]c4ccc(-c5ccccc5F)cc34)n2)CC1', '=', 6.42),
  ('COc1cccc(-c2ccc3[nH]nc(-c4cncc(O[C@@H]5CCCNC5)n4)c3c2)n1', '=', 6.23),
  ('CC(C)Oc1cccc(-c2ccc3[nH]nc(-c4cncc(O[C@@H]5CCCNC5)n4)c3c2)c1', '=', 6.00),
  ('Fc1cccc(F)c1-c1ccc2[nH]nc(-c3cncc(Nc4ccccc4)n3)c2c1', '<', 4.50),
  ('CCNc1cncc(-c2n[nH]c3ccc(-c4c(F)cccc4F)cc23)n1', '=', 5.67),
  ('c1cc2[nH]nc(-c3cncc(O[C@@H]4CCCNC4)n3)c2cc1-c1cncc(NC2CC2)n1', '=', 7.44),
  ('CC(C)(C)C(=O)Nc1cccc(-c2ccc3[nH]nc(-c4cncc(N5CCC(N)CC5)n4)c3c2)n1', '=', 6.31),
  ('O=C(NC1CC1)c1ccc(F)c(-c2ccc3[nH]nc(-c4cncc(O[C@@H]5CCCNC5)n4)c3c2)c1', '=', 6.34),
  ('NC1CCN(c2cncc(-c3c[nH]c4ccc(-c5c(F)cccc5F)cc34)n2)CC1', '=', 6.36),
  ('NC1CCN(c2cncc(-c3c[nH]c4ccc(-c5c(F)cccc5Cl)cc34)n2)CC1 [Example 27, bis(2,2,2-trifluoroacetate)]', '=', 6.11),
  ('CC(C)Oc1cncc(-c2ccc3[nH]nc(-c4cncc(N5CCC(N)CC5)n4)c3c2)n1', '=', 7.35);

All values here come from patent US9090593B2.
